Every entry's value here was drawn from paper PMC9175631.

target: T1, ZIKV virus-like particles (Suriname Z1106033) (Zika virus, Suriname Z1106033, UniProt A0A0U4DG08, strain); assay: BLI; Octet HTX; MAb 0.1 to 0.3 μg/mL amine-coupled to AR2G biosensor; ZIKV-VLP 0.1 to 1.0 μg/mL or ZIKV E protein 0.2 to 2 μg/mL in 1x kinetic buffer; association 900 s, dissociation 1,200 s; Langmuir 1:1 model; average of two runs; settings: both partners purified
T1 construct: also called ZIKV-VLP; VLP; source: bought: The Native Antigen Company
pKd: −log10 of the molar value.
Each record here notes measured pKd.
reported-property: pKd

INSERT INTO results (binder, reported_property, test_value) VALUES
  ('anti-ZIKV MAb 242-3 (antibody, V domains shown, recombinant rabbit IgG; 99% amino acid identity with 270-12) VH: QAQLEESGGDLVKPEGSLTLTCTASGFSFTDRHYMCWIRQAPGKGLEWIACVYPGSSGSTYYASWARGRFTISKTSSTTVTLRMTSLTAADTATYFCARSSYPDSSGYSYGMDLWGPGTLVTVSS VL: DIVMTQTPASVEAAVGGTVTIKCQASQNINSNLAWYQQKPGQRPKFLMYLTSKLASGVPSRFRGSGSGTQFTLTISDLECADAATYYCQTYYDISNYGYAFGGGTEVVVK', 'pKd', 9.62),
  ('anti-ZIKV MAb 11-3 (antibody, V domains shown, recombinant rabbit IgG) VH: QEQLVESGGGLVQPEGSLTITCTGSGFSFSSRFYMCWVRQAPGKGLEWIACIYGGSSGSTYYASWAKGRFTISKTSSTTVTLQISSLTAADTATYFCARGGSTAAAGFNLWGPGTLLTVSS VL: DVVMTQTPASVSATVGGTVTIKCQASEDIYNLLAWYQQKPGQPPKLLIYYASTLASGVPSRFKGSGSGTEFTLTISDLECADAATYYCQCNDYGGTYVPNAFGGGTEVVVK', 'pKd', 9.24),
  ('anti-ZIKV MAb 306-2 (antibody, V domains shown) VH: QSLEESGGDLVKPGASLTLTCTASGFDFSDRYYMCWVRQAPGKGLEWIGCIYVGSGDTYYASWAKGRFTISRTSSTTVTLQMTRLTAADTATYFCARHPGTYFTLWGPGTLVTVSS VL: DVVMTQTPSSVSAAVGGTVTINCQASQNIVNNLAWYQQRPGQPPKLLIYDTSTLASGVPSRFKGSGSGTEFTLTISDLECADAATYYCQTYYYYNKIINGFGGGTEVVVK', 'pKd', 9.40),
  ('anti-ZIKV MAb 78-2 (antibody, V domains shown) VH: QQQLVESGGGLVKPGASLTLNCKASGLDFSTNSYMCWVRQAPGKGLEWIACIYVGDSSEIYYASWAKGRFTISKTSSTTVTLQMTSLTAADTATYFCARDLPSFTAPYAGYLRLWGPGTLVTVSS VL: QPVLTQPPSLSASLGTTARLTCTLRTGYNVGDYPLLWLQRVPGRPPRYLLTYHTEEFKHQGSGVHSRFSGSKDASENAGVLSISGLQPEDEANYYCYTVHATESSLHYVFGGGTQLTVT', 'pKd', 9.72),
  ('anti-ZIKV MAb 289-3 (antibody, V domains shown) VH: QEELEESGGDLVKPGASLTLTCKASGFSFSSGAYICWVRQAPGKGPEWIACIYTGDGRTYYANWAKRRFTISSSSSTTVALEMPSLTDADTATYFCARAIAVGAGYGVGNYFTLWGPGTLVTVSS VL: DIVMTQTPSSVSAAVGGTVTINCHASENIYGYLSWYQQKPGQPPKLLIYKASTLASGVPSRFKGSGAGTQFTLTITALECADAATYYCQSYYTSSSNADGSENAFGGGTEVVVE', 'pKd', 9.52),
  ('anti-ZIKV MAb 270-12 (antibody, V domains shown, source: 293-6E cells, cotransfected, purified (MabSelect SuRe protein A)) VH: QAQLEESGGDLVKPEGSLTLTCTASGFSFTDRHYMCWVRQAPGKGLEWIACVYPGSSGSTYYASWARGRFTISKTSSTTVTLRMTSLTAADTATYFCARSSYPDSSGYSYGMDLWGPGTLVTVSS VL: DIVMTQTPASVEAAVGGTVTIKCQASQDINSNLAWYQQKPGQRPKFLMYLTSKLASGVPSRFRGSGSGTQFTLTISDLECADAATYYCQTYYDISNYGYAFGGGTEVVVK', 'pKd', 9.51);
